Hello, the source for this data is the supplement of paper PMC11061612, in case you need it.

Test system: AMO-1 (Plasma Cell Myeloma)
Experiment Description: combination Emax (second highest fraction inhibited in the dose matrix, 72 h); higher = more inhibition; extreme values may be limits of the assay
Readout: combination Emax

Compound | Target Under Test | Reported Result
COc1nnc2ccc(N3CCC(c4ccc(OCCN5CCN(C)C(=O)[C@H]5C)cc4)CC3)nn12 [AZD5153] + Cc1c2c(nn1C)CSCc1cc(n(C)n1)CSc1cc(c3ccccc3c1)OCCCc1c(C(=O)O)n(C)c3c-2c(Cl)ccc13 [AZD5991] (first compound max 1 µM, 7x7, partner max 1 µM) | AMO-1 (Plasma Cell Myeloma) | 1

Okay, next one:
Query string: Please indicate combination Emax recorded for CCc1c2c(nc3ccc(O)cc13)-c1cc3c(c(=O)n1C2)COC(=O)[C@]3(O)CC [SN-38] + CN(C)CCCOc1ccc(-c2ccc3ncc4c(c3c2)n(C2CCOCC2)c(=O)n4C)cn1 [AZD0156] (first compound max 0.3 µM, 7x7, partner max 1 µM)
Result string: 0.9

###

Test system: AMO-1 (Plasma Cell Myeloma)
Experiment Description: Bliss excess, mean over the matrix (fraction); higher = more synergy
Readout: Bliss excess
Provide a numeric answer; units are not to be included.

Worked cases, answers included:
Molecule | Bliss excess
O=C(c1cc(Cc2n[nH]c(=O)c3ccccc23)ccc1F)N1CCN(C(=O)C2CC2)CC1 [Olaparib] + CC1(C)CCC(CN2CCN(c3ccc(C(=O)NS(=O)(=O)c4ccc(NCC5CCOCC5)c([N+](=O)[O-])c4)c(Oc4cnc5[nH]ccc5c4)c3)CC2)=C(c2ccc(Cl)cc2)C1 [Venetoclax] (first compound max 10 µM, 7x7, partner max 1 µM) | -0.0074
Cc1c2c(nn1C)CSCc1cc(n(C)n1)CSc1cc(c3ccccc3c1)OCCCc1c(C(=O)O)n(C)c3c-2c(Cl)ccc13 [AZD5991] + CN(C)CCCOc1ccc(-c2ccc3ncc4c(c3c2)n(C2CCOCC2)c(=O)n4C)cn1 [AZD0156] (first compound max 1 µM, 7x7, partner max 1 µM) | 0.0058
CC(=O)c1c(C)c2cnc(Nc3ccc(N4CCNCC4)cn3)nc2n(C2CCCC2)c1=O [Palbociclib] + CC1(C)CCC(CN2CCN(c3ccc(C(=O)NS(=O)(=O)c4ccc(NCC5CCOCC5)c([N+](=O)[O-])c4)c(Oc4cnc5[nH]ccc5c4)c3)CC2)=C(c2ccc(Cl)cc2)C1 [Venetoclax] (first compound max 10 µM, 7x7, partner max 1 µM) | -0.0284
Cc1cc2ncnn2cc1Nc1ncc2c(n1)n(C1CCOCC1)c(=O)n2C [AZD7648] + O=C(c1cc(Cc2n[nH]c(=O)c3ccccc23)ccc1F)N1CCN(C(=O)C2CC2)CC1 [Olaparib] (first compound max 10 µM, 7x7, partner max 10 µM) | -0.0231
CN(C)CCCOc1ccc(-c2ccc3ncc4c(c3c2)n(C2CCOCC2)c(=O)n4C)cn1 [AZD0156] + C=CCn1c(=O)c2cnc(Nc3ccc(N4CCN(C)CC4)cc3)nc2n1-c1cccc(C(C)(C)O)n1 [AZD1775] (first compound max 1 µM, partner max 1 µM) | 0.011

Query string: Please indicate Bliss excess recorded for CN(CCO)CC[C@H](CSc1ccccc1)Nc1ccc(S(=O)(=O)NC(=O)c2ccc(N3CCC([C@@H](O)c4ccccc4-c4ccc(Cl)cc4)CC3)cc2)cc1S(=O)(=O)C(F)(F)F [AZD4320] + Cc1cc2ncnn2cc1Nc1ncc2c(n1)n(C1CCOCC1)c(=O)n2C [AZD7648] (first compound max 1 µM, 7x7, partner max 10 µM)
Result string: -0.0243

Query string: Please indicate Bliss excess recorded for Cc1c2c(nn1C)CSCc1cc(n(C)n1)CSc1cc(c3ccccc3c1)OCCCc1c(C(=O)O)n(C)c3c-2c(Cl)ccc13 [AZD5991] + Cn1cnc2c(F)c(Nc3ccc(Br)cc3Cl)c(C(=O)NOCCO)cc21 [Selumetinib] (first compound max 1 µM, 7x7, partner max 3 µM)
Result string: 0.0129

###

System: EFM-19 (Breast Carcinoma)
Experiment Description: Bliss excess, mean over the matrix (fraction); higher = more synergy
The label depends only on Bliss excess: Fulfilled if it is at least 0.03, Not fulfilled if it is smaller.

Record excerpt, results attached:
Molecule | Target Under Test | Assigned Label
Cc1c2c(nn1C)CSCc1cc(n(C)n1)CSc1cc(c3ccccc3c1)OCCCc1c(C(=O)O)n(C)c3c-2c(Cl)ccc13 [AZD5991] + Nc1ccn([C@@H]2O[C@H](CO)[C@@H](O)C2(F)F)c(=O)n1 [Gemcitabine] (first compound max 1 µM, 7x7, partner max 0.3 µM) | EFM-19 (Breast Carcinoma) | Fulfilled
CN(C)CCCOc1ccc(-c2ccc3ncc4c(c3c2)n(C2CCOCC2)c(=O)n4C)cn1 [AZD0156] + O=C(c1cc(Cc2n[nH]c(=O)c3ccccc23)ccc1F)N1CCN(C(=O)C2CC2)CC1 [Olaparib] (first compound max 3 µM, partner max 3 µM) | EFM-19 (Breast Carcinoma) | Not fulfilled
Cc1cc2ncnn2cc1Nc1ncc2c(n1)n(C1CCOCC1)c(=O)n2C [AZD7648] + C[C@@H]1COCCN1C2=NC(=NC(=C2)C3(CC3)[S@](=N)(=O)C)C4=C5C=CNC5=NC=C4 [AZD6738] (first compound max 10 µM, 7x7, partner max 10 µM) | EFM-19 (Breast Carcinoma) | Fulfilled
CN(C)CCCOc1ccc(-c2ccc3ncc4c(c3c2)n(C2CCOCC2)c(=O)n4C)cn1 [AZD0156] + C[C@@H]1COCCN1C2=NC(=NC(=C2)C3(CC3)[S@](=N)(=O)C)C4=C5C=CNC5=NC=C4 [AZD6738] (first compound max 1 µM, 7x7, partner max 10 µM) | EFM-19 (Breast Carcinoma) | Not fulfilled
CC(=O)Nc1cccc(-n2c(=O)n(C3CC3)c(=O)c3c(Nc4ccc(I)cc4F)n(C)c(=O)c(C)c32)c1 [Trametinib] + Cc1nc(-c2cn3c(n2)-c2ccc(-c4cnn(C(C)(C)C(N)=O)c4)cc2OCC3)n(C(C)C)n1 [Taselisib] (first compound max 1 µM, 7x7, partner max 10 µM) | EFM-19 (Breast Carcinoma) | Not fulfilled
NC1(C(=O)N[C@@H](CCO)c2ccc(Cl)cc2)CCN(c2ncnc3[nH]ccc23)CC1 [Capivasertib] + COc1nnc2ccc(N3CCC(c4ccc(OCCN5CCN(C)C(=O)[C@H]5C)cc4)CC3)nn12 [AZD5153] (first compound max 10 µM, 7x7, partner max 1 µM) | EFM-19 (Breast Carcinoma) | Fulfilled

Query string: Is Bliss excess for C=CCn1c(=O)c2cnc(Nc3ccc(N4CCN(C)CC4)cc3)nc2n1-c1cccc(C(C)(C)O)n1 [AZD1775] + C1CN(CCC1(C(=O)N[C@@H](CCO)C2=CC=C(C=C2)Cl)N)C3=NC=NC4=C3C=CN4 [Capivasertib] (first compound max 3 µM, partner max 3 µM) at or above 0.03?
Result string: Not fulfilled

Query string: Is Bliss excess for Cn1cnc2c(F)c(Nc3ccc(Br)cc3Cl)c(C(=O)NOCCO)cc21 [Selumetinib] + C[C@@H]1COCCN1C2=NC(=NC(=C2)C3(CC3)[S@](=N)(=O)C)C4=C5C=CNC5=NC=C4 [AZD6738] (first compound max 10 µM, 7x7, partner max 10 µM) at or above 0.03?
Result string: Not fulfilled

###

Test system: HSC-4 (Oral Cavity Carcinoma)
Experiment Description: combination Emax (second highest fraction inhibited in the dose matrix, 72 h); higher = more inhibition; extreme values may be limits of the assay
# key: entry, value: combination Emax
Provide a numeric answer; units are not to be included.

Compound | Target Under Test | combination Emax
COc1nnc2ccc(N3CCC(c4ccc(OCCN5CCN(C)C(=O)[C@H]5C)cc4)CC3)nn12 [AZD5153] + Cn1cnc2c(F)c(Nc3ccc(Br)cc3Cl)c(C(=O)NOCCO)cc21 [Selumetinib] (first compound max 1 µM, 7x7, partner max 10 µM) | HSC-4 (Oral Cavity Carcinoma) | 0.423
COc1nnc2ccc(N3CCC(c4ccc(OCCN5CCN(C)C(=O)[C@H]5C)cc4)CC3)nn12 [AZD5153] + CN(CC[C@H](CSC1=CC=CC=C1)NC2=C(C=C(C=C2)S(=O)(=O)NC(=O)C3=CC=C(C=C3)N4CCC(CC4)[C@H](C5=CC=CC=C5C6=CC=C(C=C6)Cl)O)S(=O)(=O)C(F)(F)F)CCO [AZD4320] (first compound max 1 µM, 7x7, partner max 1 µM) | HSC-4 (Oral Cavity Carcinoma) | 0.217
Cc1c2c(nn1C)CSCc1cc(n(C)n1)CSc1cc(c3ccccc3c1)OCCCc1c(C(=O)O)n(C)c3c-2c(Cl)ccc13 [AZD5991] + C1CN(CCC1(C(=O)N[C@@H](CCO)C2=CC=C(C=C2)Cl)N)C3=NC=NC4=C3C=CN4 [Capivasertib] (first compound max 1 µM, 7x7, partner max 3 µM) | HSC-4 (Oral Cavity Carcinoma) | 0.42
CC(=O)c1c(C)c2cnc(Nc3ccc(N4CCNCC4)cn3)nc2n(C2CCCC2)c1=O [Palbociclib] + Cc1c2c(nn1C)CSCc1cc(n(C)n1)CSc1cc(c3ccccc3c1)OCCCc1c(C(=O)O)n(C)c3c-2c(Cl)ccc13 [AZD5991] (first compound max 10 µM, 7x7, partner max 1 µM) | HSC-4 (Oral Cavity Carcinoma) | 0.106
CCN(CCO)CCCOc1ccc2c(Nc3cc(CC(=O)Nc4cccc(F)c4)[nH]n3)ncnc2c1 [AZD2811] + C=CCn1c(=O)c2cnc(Nc3ccc(N4CCN(C)CC4)cc3)nc2n1-c1cccc(C(C)(C)O)n1 [AZD1775] (first compound max 1 µM, partner max 1 µM) | HSC-4 (Oral Cavity Carcinoma) | 0.367

Query string: Please indicate combination Emax recorded for NC1(C(=O)N[C@@H](CCO)c2ccc(Cl)cc2)CCN(c2ncnc3[nH]ccc23)CC1 [Capivasertib] + CC(C)n1c(=O)n(C)c2cnc3cc(F)c(-c4ccc(OCCCN5CCCCC5)nc4)cc3c21 [AZD1390] (first compound max 10 µM, 7x7, partner max 0.3 µM)
Result string: 0.337

Query string: Please indicate combination Emax recorded for CN(CCO)CC[C@H](CSc1ccccc1)Nc1ccc(S(=O)(=O)NC(=O)c2ccc(N3CCC([C@@H](O)c4ccccc4-c4ccc(Cl)cc4)CC3)cc2)cc1S(=O)(=O)C(F)(F)F [AZD4320] + CCN(CCO)CCCOc1ccc2c(Nc3cc(CC(=O)Nc4cccc(F)c4)[nH]n3)ncnc2c1 [AZD2811] (first compound max 1 µM, 7x7, partner max 1 µM)
Result string: 0.517
